- Tested on: KM12
- method-description: NCI tumour cell line growth inhibition, 48 h
Active and inactive are the calls of the source. Cut-off read from the data, not from the text of the source: active = GI50 up to about 1.1 µM and inactive = higher.
Classes used: t for active, f for inactive

{"columns": ["molecule", "target-under-test", "group-label"],
 "data": [
  ["O=C(Cn1c(=O)oc2ccc(C(=O)c3ccccc3Cl)cc21)c1ccc([N+](=O)[O-])cc1", "KM12", "f"],
  ["COc1ccc2[nH]c3c4c(ccc3c2c1)C(=O)C=CC4=O", "KM12", "f"],
  ["CNc1nnc(CCCCCCCCc2nnc(NC)o2)o1", "KM12", "f"],
  ["COc1cc(C(=O)C2C(=O)c3ccccc3C2C2(O)c3ccccc3CC2C(O)c2cc(OC)c(OC)c(OC)c2)cc(OC)c1OC (centres undefined)", "KM12", "f"],
  ["CN(C)CCNC(=O)Cn1ccc(=O)c2c([N+](=O)[O-])cccc21", "KM12", "f"],
  ["C=C1C(=O)O[C@H]2C1[C@H](OC(=O)/C(C)=C\\COC(C)=O)C[C@]1(CO1)[C@@H]1[C@H](O)[C@H]3O[C@@]3(C)[C@@H]12 (some centres undefined)", "KM12", "f"],
  ["CN(C)CCCNc1ccc2nnn3c4ccc([N+](=O)[O-])cc4c(=O)c1c23", "KM12", "t"],
  ["C=CCC1C2CCC(O[Si](C(C)C)(C(C)C)C(C)C)(C(C(=O)OC)C2)C1O (centres undefined)", "KM12", "f"],
  ["O=c1cc(NCC2CCCCC2)[nH]c(=O)[nH]1", "KM12", "f"],
  ["c1ccc(-c2ccc(/N=N/N3CCCC3)cc2)cc1", "KM12", "f"],
  ["CC(C)=CC(=O)CC(=O)C(=O)Nc1ccc(C)c(C)c1", "KM12", "f"],
  ["O=C(Nc1ccc([N+](=O)[O-])cc1[N+](=O)[O-])C(=O)C(C(=O)c1ccc(Cl)c(Cl)c1)C1OC(=O)c2ccccc21 (centres undefined)", "KM12", "f"],
  ["Cc1cccc(-n2c(=S)[nH]c3c(sc(=O)n3-c3ccccc3C)c2=O)c1", "KM12", "f"],
  ["NC(=O)CC(N)C(=O)NC(Cc1ccccc1)C(=O)NC(Cc1ccccc1)NC(=O)C(Cc1c[nH]c2ccccc12)C(=O)O (centres undefined)", "KM12", "f"],
  ["CCCCCCCCCC(=O)OCC1(CO)C/C(=C/CC(C(C)C)C(C)C)C(=O)O1 (centres undefined)", "KM12", "f"],
  ["COC(=O)C(C#N)C1NC(=O)c2ccccc21 (centres undefined)", "KM12", "f"],
  ["COc1cc2ccc1-c1cc(ccc1O)CC1c3cc4c(cc3CCN1C)Oc1c(OC)cc3c(c1O4)C(C2)N(C)CC3 (centres undefined)", "KM12", "f"],
  ["Cn1c(=O)sc2cc(C(=S)N3CCC(Cc4ccccc4)CC3)ccc21", "KM12", "f"],
  ["CC(=O)O[C@H]1CN(S(=O)(=O)c2ccc(C)cc2)C[C@@H]1C1CCCCC1", "KM12", "f"]
]}
